Values compiled from ChEMBL document CHEMBL1156758.

Please go through the items and note down their IC50.
Target: Cruzipain (Trypanosoma cruzi)
Sequence (P25779 whole entry): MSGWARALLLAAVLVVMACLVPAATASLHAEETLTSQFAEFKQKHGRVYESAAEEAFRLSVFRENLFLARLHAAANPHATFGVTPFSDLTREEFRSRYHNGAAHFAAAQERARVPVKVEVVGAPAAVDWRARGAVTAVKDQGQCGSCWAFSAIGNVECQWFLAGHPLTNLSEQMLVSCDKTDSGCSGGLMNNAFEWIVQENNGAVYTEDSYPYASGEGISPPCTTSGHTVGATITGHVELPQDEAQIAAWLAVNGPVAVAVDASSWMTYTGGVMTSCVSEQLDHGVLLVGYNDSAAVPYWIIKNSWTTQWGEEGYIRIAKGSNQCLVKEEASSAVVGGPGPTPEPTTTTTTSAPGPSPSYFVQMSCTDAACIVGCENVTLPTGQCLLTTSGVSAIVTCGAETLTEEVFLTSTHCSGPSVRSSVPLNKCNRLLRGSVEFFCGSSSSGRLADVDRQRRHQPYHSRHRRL
Assay: Inhibition of Trypanosoma cruzi cruzain by quantitative high throughput screening

Cruzipain (Trypanosoma cruzi) data for C=C(C)CSc1cc(N)c(C#N)c(-c2ccc(C)cc2)c1C#N ; its IC50: > 60 µM

Lab entry: Cruzipain (Trypanosoma cruzi) assay, compound O=C(c1ccc(OCCN2CCCCC2)cc1)c1c(-c2ccc(O)cc2)sc2cc(O)ccc12 , IC50 = > 60 µM

Lab note: compound CCn1ccnc1C(O)c1cccc(OC)c1OC (stereo unspecified) tested on Cruzipain (Trypanosoma cruzi); recorded IC50 was > 60 µM

Recorded IC50 for O=C(CS[n+]1cc(-c2ccc(F)cc2)cs1)NC(=O)NCc1ccco1 on Cruzipain (Trypanosoma cruzi) was > 60 µM

The compound N#Cc1c(-c2ccccc2)cc(-c2ccco2)c(C#N)c1N , tested on Cruzipain (Trypanosoma cruzi), showed IC50 of > 60 µM

The observed IC50 for Cc1ccc(NC(=O)CSC(N)=O)cc1Cl when tested with Cruzipain (Trypanosoma cruzi) stands at > 60 µM
